Source: ChEMBL document CHEMBL3627694

- Species on record: Homo sapiens
- METHOD_NOTES: Ratio of RBA for human recombinant ER beta to RBA for human recombinant ER alpha
TEST_READOUT: Ratio

Worked examples follow.
| COMPOUND | Ratio |
| --- | --- |
| CC1(C)CC(C(c2ccc(O)cc2)c2ccc(O)cc2)CC(C)(C)C1 | 1.2 |
| Oc1ccc(C(c2ccc(O)cc2)C2CCC(Cl)(Cl)CC2)cc1 | 0.2 |
| Oc1ccc(C(c2ccc(O)cc2)C2CCC3(CC2)OCCO3)cc1 | 0.5 |
| Oc1ccc(C(c2ccc(O)cc2)C2CCC(F)(F)CC2)cc1 | 1.3 |

[1] Oc1ccc(C(c2ccc(O)cc2)C2CCCC2)cc1
[2] Oc1ccc(C(c2ccc(O)cc2)C2CCCC(Cl)(Cl)C2)cc1 (configuration not stated)
Query: When 1 and 2 are compared, which has the higher number for Ratio? Please respond with the label that marks your chosen entry.
Response: 1
(1: 3, 2: 1)

====

- TARGET_SYSTEM: UniProtKB P03372
- Sequence (whole entry): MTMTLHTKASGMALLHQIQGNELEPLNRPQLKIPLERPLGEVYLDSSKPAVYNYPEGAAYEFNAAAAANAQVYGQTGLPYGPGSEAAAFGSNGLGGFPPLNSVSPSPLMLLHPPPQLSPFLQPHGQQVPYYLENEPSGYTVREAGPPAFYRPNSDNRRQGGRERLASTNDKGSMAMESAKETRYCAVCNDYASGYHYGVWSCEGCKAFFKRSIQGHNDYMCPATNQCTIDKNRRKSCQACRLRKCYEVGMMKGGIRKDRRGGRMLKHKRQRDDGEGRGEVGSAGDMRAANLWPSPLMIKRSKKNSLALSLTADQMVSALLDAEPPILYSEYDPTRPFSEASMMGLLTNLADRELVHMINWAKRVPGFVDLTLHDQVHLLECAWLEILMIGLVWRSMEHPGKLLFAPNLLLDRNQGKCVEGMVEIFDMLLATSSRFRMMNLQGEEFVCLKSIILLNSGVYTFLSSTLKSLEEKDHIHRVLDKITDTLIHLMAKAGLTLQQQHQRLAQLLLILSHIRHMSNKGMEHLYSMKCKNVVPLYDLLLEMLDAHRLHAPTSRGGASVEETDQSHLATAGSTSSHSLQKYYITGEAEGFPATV
- METHOD_NOTES: Displacement of [6,7-3H]17 beta-estradiol from human recombinant ER alpha assessed as relative binding affinity incubated for 18 hrs at 4 degC by radiometric binding assay relative to estradiol
TEST_READOUT: RBA (%)

| COMPOUND | NUMBER |
| --- | --- |
| CC1(C)CC(C(c2ccc(O)cc2)c2ccc(O)cc2)CC(C)(C)C1 | 28.4 |
| Oc1ccc(C(c2ccc(O)cc2)C2CCCCC2)cc1 | 6.71 |

[A] Oc1ccc(C(c2ccc(O)cc2)C2CCC3(CC2)OCCO3)cc1
[B] Oc1ccc(C(c2ccc(O)cc2)C2CCCC(F)(F)C2)cc1 (centres undefined)
Query: Consider A and B . Which of these has its RBA at a higher number? Reply with the label of the item you choose.
Response: B

[A] CC1(C)CCCC(C(c2ccc(O)cc2)c2ccc(O)cc2)C1 (centres undefined)
[B] CC1(C)CCC(C(c2ccc(O)cc2)c2ccc(O)cc2)CC1
Query: From the items above, decide which of A and B has the lower RBA reading. Reply with the label of the item you choose.
Response: B
(B: 3.64%, A: 98.8%)

[A] Oc1ccc(C(c2ccc(O)cc2)C2CCCC3(C2)SCCCS3)cc1 (centres undefined)
[B] Oc1ccc(C(c2ccc(O)cc2)C2CCCC(Cl)(Cl)C2)cc1 (centres undefined)
Query: Higher RBA: A or B ? Write down the label of the entry you select.
Response: A
